Below, each of the compounds is paired with its reported log10 IC50 value.
# System: Cytomegalovirus
# protocol_text: Anti CMV (Cytomegalovirus- virus) activity against Davis strain in HEL cells
# Type: functional, organism-based
# test_settings: Human betaherpesvirus 5, HEL
Values below are the log10 of the recorded IC50, with µg/mL as the unit.

Cc1ccn2c(CSCC(F)(F)F)cnc2c1	1.62
Cc1ccc2ncc(CSCc3ccccc3)n2c1	-0.30
Cc1cc(Br)c2ncc(CSCc3ccccc3)n2c1	0.04

Given Nc1nc2c(ncn2COC(CO)CO)c(=O)[nH]1 , state its recorded log10 IC50.
-0.30

Given Cc1ccn2c(CSCc3ccc(Cl)cc3)cnc2c1 , state its recorded log10 IC50.
0.20

* * *

Below, each of the molecules is paired with its reported IC50 value.
# Test system: Human alphaherpesvirus 3
# protocol_text: Anti-VZV activity against 07/1 TK- in HEL cells
# Format: functional, organism-based
# test_settings: Human alphaherpesvirus 3, HEL
Entry rule: numbers only, all in µg/mL.

Take a look at these entries with their results.
Cc1cc(Br)c2ncc(CSCc3ccccc3)n2c1	9
Cc1nc2ccccn2c1CSCc1ccccc1	0.5

Please look at the following molecule next.
Given Cc1ccn2c(CSCc3ccccc3)c(C)nc2c1 , state its recorded IC50.
14.1

* * *

# Tested on: Human alphaherpesvirus 3
# protocol_text: Anti-VZV activity against 07/1 TK- in HEL cells
# Format: functional, organism-based
# test_settings: Human alphaherpesvirus 3, HEL
Below, each of the compounds is paired with its reported IC50 value.

Cc1c(Br)cc(Br)c2ncc(CSCc3ccccc3)n12	> 50 µg/mL
Cc1ccn2c(CSCc3ccc(Cl)cc3)cnc2c1	> 5 µg/mL

Given O=c1[nH]c(=O)n([C@H]2C[C@H](O)[C@@H](CO)O2)cc1/C=C/Br , state its recorded IC50.
> 50 µg/mL

Given Cc1ccn2c(CSCc3ccccc3Cl)cnc2c1 , state its recorded IC50.
> 5 µg/mL

* * *

# Tested on: Human betaherpesvirus 5
# protocol_text: Anti CMV (Cytomegalovirus- virus) activity against AD-169 strain in HEL cells
# Format: functional, organism-based
# test_settings: Human betaherpesvirus 5, HEL
Below, each of the molecules is paired with its reported IC50 value.

Cc1ccn2c(CSCc3ccccc3)c(-c3ccccc3)nc2c1	> 20 mg/L

Given Cc1c(Br)cc(Br)c2ncc(CSCc3ccccc3)n12 , state its recorded IC50.
> 50 mg/L

Given FC(F)(F)c1cc(Cl)c2ncc(CSCc3ccccc3)n2c1 , state its recorded IC50.
> 5 mg/L

* * *

Below, each of the molecules is paired with its reported IC50 value.
# Test system: Cytomegalovirus
# protocol_text: Anti CMV (Cytomegalovirus- virus) activity against Davis strain in HEL cells
# Type: functional, organism-based
# test_settings: Human betaherpesvirus 5, HEL

Take a look at these entries with their results.
FC(F)(F)c1cc(Cl)c2ncc(CSCc3ccccc3)n2c1	> 5 mg/L
Cc1ccn2c(CSCc3ccccc3)c(-c3ccccc3)nc2c1	> 20 mg/L
Cc1ccc(C)n2c(CSCc3ccccc3)cnc12	> 2 mg/L
Cc1ccn2c(CSCCc3ccccc3)cnc2c1	0.35 mg/L
Cc1cccn2c(CSCc3ccccc3)c(-c3ccccc3)nc12	> 2 mg/L

API: value(readout=IC50, system=Cytomegalovirus) for record Cc1cccn2c(CSCc3ccccc3)cnc12
0.2 mg/L

API: value(readout=IC50, system=Cytomegalovirus) for record Cc1c(Br)cc(Br)c2ncc(CSCc3ccccc3)n12
> 50 mg/L

API: value(readout=IC50, system=Cytomegalovirus) for record Cc1cc(Br)cn2c(CSCc3ccccc3)cnc12
0.12 mg/L

* * *

# Tested on: Human alphaherpesvirus 3
# protocol_text: Anti-VZV activity against 07/1 TK- in HEL cells
# Format: functional, organism-based
# test_settings: Human alphaherpesvirus 3, HEL
endpoint_label: IC50

Take a look at these entries with their results.
Cc1cccn2c(CSCc3ccccc3)c(-c3ccccc3)nc12	> 2 µg/mL
Cc1ccc(C)n2c(CSCc3ccccc3)cnc12	> 2 µg/mL
Cc1ccn2c(CSCc3ccccc3)c(-c3ccccc3)nc2c1	> 50 µg/mL

Given FC(F)(F)c1cc(Cl)c2ncc(CSCc3ccccc3)n2c1 , state its recorded IC50.
> 5 µg/mL
